Target: HDAC6 (Homo sapiens, UniProt Q9UBN7)
Sequence (Q9UBN7 whole entry): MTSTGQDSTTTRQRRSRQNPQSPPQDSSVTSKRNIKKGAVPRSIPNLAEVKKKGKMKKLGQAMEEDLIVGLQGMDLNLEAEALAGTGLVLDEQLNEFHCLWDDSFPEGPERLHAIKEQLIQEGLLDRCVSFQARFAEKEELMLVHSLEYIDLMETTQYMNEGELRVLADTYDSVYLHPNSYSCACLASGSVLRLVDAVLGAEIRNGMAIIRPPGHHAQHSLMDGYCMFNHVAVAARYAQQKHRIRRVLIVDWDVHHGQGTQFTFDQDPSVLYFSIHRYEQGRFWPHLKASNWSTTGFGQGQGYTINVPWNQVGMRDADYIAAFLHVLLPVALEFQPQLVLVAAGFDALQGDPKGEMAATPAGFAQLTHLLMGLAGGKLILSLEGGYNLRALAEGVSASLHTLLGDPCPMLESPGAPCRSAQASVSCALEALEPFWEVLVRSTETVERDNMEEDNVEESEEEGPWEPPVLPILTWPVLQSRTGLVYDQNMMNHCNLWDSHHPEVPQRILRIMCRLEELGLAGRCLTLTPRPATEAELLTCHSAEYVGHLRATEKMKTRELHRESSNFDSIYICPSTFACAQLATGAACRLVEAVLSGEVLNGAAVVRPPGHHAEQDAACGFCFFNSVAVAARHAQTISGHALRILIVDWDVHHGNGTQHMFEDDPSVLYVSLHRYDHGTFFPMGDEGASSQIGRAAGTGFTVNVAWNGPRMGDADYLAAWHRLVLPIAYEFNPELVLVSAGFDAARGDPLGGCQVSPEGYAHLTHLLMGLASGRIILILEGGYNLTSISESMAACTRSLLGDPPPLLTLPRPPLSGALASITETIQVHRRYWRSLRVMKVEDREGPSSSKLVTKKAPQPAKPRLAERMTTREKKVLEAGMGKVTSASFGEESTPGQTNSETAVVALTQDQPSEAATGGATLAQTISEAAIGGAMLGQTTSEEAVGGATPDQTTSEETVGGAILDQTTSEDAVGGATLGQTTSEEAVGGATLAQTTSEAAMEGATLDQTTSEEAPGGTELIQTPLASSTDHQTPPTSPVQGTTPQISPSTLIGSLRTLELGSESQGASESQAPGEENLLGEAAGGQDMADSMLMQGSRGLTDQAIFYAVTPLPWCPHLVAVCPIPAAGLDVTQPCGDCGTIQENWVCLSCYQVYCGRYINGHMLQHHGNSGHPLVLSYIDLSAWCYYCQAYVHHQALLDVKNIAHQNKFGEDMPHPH
Test: Human HDAC enzyme inhibitor Fluor-de-Lys assay, HDAC6
Type: biochemical
Conditions: HDAC6, Fluor-de-Lys assay
Consider the following compounds; for each one, report its IC50.
Answers are plain numbers, in µM.

Recorded IC50, per entry:
{"chem-smiles": "CCC(=O)CCCCC[C@H](NC(=O)CC1CC2(C1)CN(C(C)=O)C2)c1ncc(-c2ccccc2)[nH]1", "assay-metric": "IC50", "unit-spec": "µM", "result": 23.2}
{"chem-smiles": "CCC(=O)CCCCC[C@H](NC(=O)C1CCC2(CC1)CN(C(C)C)C2)c1ncc(-c2cc3ccccc3nc2OC)[nH]1", "assay-metric": "IC50", "unit-spec": "µM", "result": 0.449}

Now let's try a different one.
Note down IC50 recorded for `CCCN1CCC2(CC1)C[C@@H]2C(=O)N[C@@H](CCCCCC(=O)CC)c1ncc(-c2cc3ccccc3nc2OC)[nH]1` 0.49

The reported measurements were obtained from patent US12590099B2.
